Would you mind telling me the reported kon of each entry?
# test.system: T1, full length human tau protein 2N4R (hT40) (human, UniProt P10636 1-758)
# T1 construct: recombinant; also called T441
# T1 sequence (P10636 other isoform, or with tags, fused parts or gaps limits assumed): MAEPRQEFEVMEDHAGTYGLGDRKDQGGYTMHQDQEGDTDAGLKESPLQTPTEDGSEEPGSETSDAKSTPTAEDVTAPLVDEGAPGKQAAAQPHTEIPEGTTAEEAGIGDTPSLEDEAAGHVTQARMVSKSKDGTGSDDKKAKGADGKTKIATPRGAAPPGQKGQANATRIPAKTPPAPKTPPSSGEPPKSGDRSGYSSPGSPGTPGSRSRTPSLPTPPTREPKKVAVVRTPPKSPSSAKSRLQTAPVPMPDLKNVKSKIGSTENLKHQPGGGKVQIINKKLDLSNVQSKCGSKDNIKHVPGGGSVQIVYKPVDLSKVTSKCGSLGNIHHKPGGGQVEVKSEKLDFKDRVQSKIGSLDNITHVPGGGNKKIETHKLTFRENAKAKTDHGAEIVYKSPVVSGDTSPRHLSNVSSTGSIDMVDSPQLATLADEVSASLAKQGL
# experiment.summary: SPR, hT40 immobilised, mAb analyte

# lookup: kon of 3aG3 mAb (antibody, V domains shown) VH: QVQLQESGPSLVKPSQTLSLTCTVSGFSLSSNGVGWVRQAPGKVPEWVGDISSSGKAYANPALKSRLSITRDTAKTQVFLSLSSVTTEDTAVYYCVRCRDGGVSYGYDIDYWGPGLLVTVSS VL: QAVLTQPPSVSGSPGQRVSITCSGSSSNIGGGNYLSWFQQVPGSAPKLLIYGATSRASGVPDRFSGSRSGNTATLTISSLQAEDEADYYCASFDTSSGGIFGAGTRLTVLG
1.53e+07 M⁻¹ s⁻¹

# lookup: kon of 3bD11 mAb (antibody) RVRLQGSGPSLVKPSQTLSLTCTVSGFSFDSYYVGWVRQAPGKALEWLGNIYSTGRAFYNPALKSRLSITRDTSKSQVSLSVSSVTIEDTALYYCVRGSYYHGGGNGMVDFFDYWSPGLLVTVSSEGKSSGASGESKVDDQVVRTQPSSVSGSLGQRVSITCSGSSSNVGYGNYVGWFQQVPGSAPKLLIYAATSRASGVPDRFSGSRSGNTATLTIDSLQAEDEADYYCSSYQRGNTGVFGSGTRLTVLG
2.67e+06 M⁻¹ s⁻¹

# lookup: kon of E1B8 mAb (antibody, V domains shown) VH: QVQLQESGPSLVKPSQTLSLTCTVSGFSLTNYPVGWVRQAPGKALEWIGNIENDGSANYASALKSRLSITRDTSKNQVSLSLSSATTEDTAVYYCGREFGGSDGYTYFVDIDYWGPGLLVTVSS VL: QAVLTQPSSVSKSLGQSVSITCSGSSSNVGYGNYVSWFQQVPGSAPKILIYGATSRASGVPDRFSGSRSGNTATLTITSLQAEDEADYYCASYDGSSSGVFGSGTRLTVLG
324000 M⁻¹ s⁻¹

# lookup: kon of MD9 mAb (antibody, V domains shown) VH: QVRLQESGPSLVKSSQTLSLTCTVSGFSLTRESIAWVRQAPGKVPEWLGGVGIDGTSYYSPALKSRLSITRDTSKSQASLSLSSVATEDTAMYYCARNYIDFEYWGPGLLVTVSS VL: QAVLTQLSSVSGSLGQRISITCSGSSSNVGIYDVSWFQQLPGSGLRTVIYGTNNRPSGVPDRFSGSRSGNTATLTISSLQSEDEAIYYCAAGDSSTIAVFGSGTRLTVLG
66200 M⁻¹ s⁻¹

# lookup: kon of 3bG4 mAb (antibody, mouse IgG2a, V domains shown, sheep-mouse IgG2a chimeric mAb) VH: QVQLQESGPSLVKPSQTLSLTCTISGFSLISNGVGWVRQAPGKVPEWVGDIASSGKAYSNPALKSRLSITRDTSKSQVSLSLRSVTTEDTAVYYCVRCRDGGVTYGYDIDYWGPGLLVTVSS VL: QAVLTQPSSVSKSLGQSVSITCSGSTSNVGSGNDVSWFQQVPGSAPKLLFYGATNRASGVPDRFSGSRSGNTATLTITSLQAEDEADYYCGSYDSNSGGIFGSGTRLTVLG
4.54e+06 M⁻¹ s⁻¹
